- Tested on: DeltatarO mutant
- assay.procedure: S. aureus survival, RN4220 and DeltatarO strains – OD600, teichoic acid synthesis inhibitors, primary screen (AID 463173)
- setup.conditions: S. aureus RN4220 wild type/DeltatarO growth, OD600, 18 h, screened at 18.75 µg/mL (by protocol)
In all, about 52,000 compounds went through this assay and about 4,300 (8.3%) were called active. Cut-off read from the data, not from the text of the source: active = survival mostly below about 52% (no sharp cut-off); inactive = mostly above about 56%. What follows is part of a selection rich in actives, with near analogues and random picks from the rest.
Permitted responses: active, inactive

Check out these entries, answers already filled in.
CCN(C(=O)c1ccc2c(=O)n3c(nc2c1)CCCCC3)c1cc(C)ccc1C | inactive
Cc1ccc(NC(=O)CCC(=O)N2Cc3ccccc3Oc3ncccc32)cc1Cl | inactive

**Query** What did the test return for `Cc1ccc(Cl)cc1-n1ncc2c(NC3CCCCC3)ncnc21` ?
**Result** inactive

**Query** Hi team, can someone confirm the assay call for `CCN(CC)c1ccc(NC(=O)CN2C(=O)c3cccnc3Oc3ccccc32)c(C)c1` ?
**Result** inactive

**Query** Status in this test for `CN(C)c1ccc(CNC(=O)CCC(=O)N2Cc3ccccc3Oc3ncccc32)cc1` ?
**Result** inactive

**Query** # lookup: test call for `CCN(Cc1ccccc1)S(=O)(=O)c1ccc(F)c(C(=O)Nc2cc(C(F)(F)F)ccc2Cl)c1`
**Result** active

**Query** Hi team, can someone confirm the assay call for `CCOc1ccc(CCNC(=O)c2cc3c(s2)-c2c(C)cccc2OC3)cc1` ?
**Result** inactive

**Query** Call for entry CNC(=O)C1CCC(Cn2c(=O)c3sccc3n(CC(=O)Nc3ccc(C)cc3C)c2=O)CC1 (stereo not given) :
**Result** inactive
